Target: T1, DLL3 on the surface of DLL3-positive cell lines SHP77 and NCI-H82 (UniProt Q9NYJ7 27-618, limits assumed)
T1 construct: whole, on cells; The cell line of each number is named under assay
T1 sequence (looked up): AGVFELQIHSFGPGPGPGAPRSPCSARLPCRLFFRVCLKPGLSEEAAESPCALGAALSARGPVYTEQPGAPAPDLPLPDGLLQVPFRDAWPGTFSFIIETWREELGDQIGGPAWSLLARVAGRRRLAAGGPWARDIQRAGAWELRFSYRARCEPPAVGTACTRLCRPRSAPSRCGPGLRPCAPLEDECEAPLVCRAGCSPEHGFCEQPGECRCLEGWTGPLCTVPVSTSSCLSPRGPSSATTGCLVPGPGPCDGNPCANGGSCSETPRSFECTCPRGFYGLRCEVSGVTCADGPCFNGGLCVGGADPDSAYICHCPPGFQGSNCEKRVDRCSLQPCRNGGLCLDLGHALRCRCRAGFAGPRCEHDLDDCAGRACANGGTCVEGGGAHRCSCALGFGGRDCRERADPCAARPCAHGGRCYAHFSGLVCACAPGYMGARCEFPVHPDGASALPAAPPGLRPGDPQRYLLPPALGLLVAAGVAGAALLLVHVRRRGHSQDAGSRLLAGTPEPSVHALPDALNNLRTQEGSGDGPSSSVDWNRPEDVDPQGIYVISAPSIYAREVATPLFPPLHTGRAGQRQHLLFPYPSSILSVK
Assay: flow cytometry on SHP77 cells
Rule: EC50 below 0.07 µg/mL gives class 1. Equal to or above 0.07 µg/mL gives class 0.

[ask] A record lists Ab.63 scFv-human IgG Fc (Fc fusion, Tested as scFv-human IgG Fc; not shown: human IgG Fc) QIVLTQSPGTLSLSPGERATLSCRASQSVTRGYLAWYQQKPGQAPRLLFYGASNRATDIPDRFSGSGSGTDFTLIISRLEPEDFAVYYCQQYGISPLTFGGGTKVEIKGGGGSGGGGSGGGGSQVQLHESGPGLVKPSETLSLTCTVSGASISSYYWSWIRQPPGKGLEWIGYIYYSGTTNFNPSLKSRVTISVDTSKNQFSLRLSSVTTADTAVYYCANLALTGFHFDYWGQGTLVTVSS . Is its EC50 below 0.07 µg/mL?
[reply] class 1

[ask] Quick check: EC50 of AMG757 (anti-DLL3 scFv from Amgen's patent, positive control) scFv-human IgG Fc (Fc fusion, not shown: human IgG Fc) EIVLTQSPGTLSLSPGERVTLSCRASQRVNNNYLAWYQQRPGQAPRLLIYGASSRATGIPDRFSGSGSGTDFTLTISRLEPEDFAVYYCQQYDRSPLTFGCGTKLEIKGGGGSGGGGSGGGGSQVQLQESGPGLVKPSETLSLTCTVSGGSISSYYWSWIRQPPGKCLEWIGYVYYSGTTNYNPSLKSRVTISVDTSKNQFSLKLSSVTAADTAVYYCASIAVTGFYFDYWGQGTLVTVSS under 0.07 µg/mL?
[reply] class 0

[ask] Could you please tell me whether EC50 recorded for Ab.79 scFv-human IgG Fc (Fc fusion, Tested as scFv-human IgG Fc; not shown: human IgG Fc) DVVMTQSPLSLPVTLGQPASISCRSSQSLVYNDGNTYLTWFQQWPGQSPRRLIYKVSNRDSGVPDRFSGSGSGTDFTLKISRVEAEDIGVYHCMQGTHWPYTFGQGTKLEIKGGGGSGGGGSGGGGSQVQVQESGPGLVKSSETLSLTCTVSGGSFRSYYWSWIRQPPGKGLDYIGYMYYSGTTNYNPSLTNRVSISVDTSKNQFSLKLNSVTAADTAVYYCAREGTFDIWGQGTVVTVSS is less than 0.07 µg/mL?
[reply] class 0

[ask] Strictly below 0.07 µg/mL: is that where EC50 of Ab.71 scFv-human IgG Fc (Fc fusion, Tested as scFv-human IgG Fc; not shown: human IgG Fc) DIGMTQSPDSLAVSLGERATINCKSSQNVLPNSNKKHYLSWYQQKPGQPPKLLIYLASTRASGVPDRFSGSGSGTDFTLTISSLQAEDVAVYYCQQYYSSPPEWTFGQGTKVEIKGGGGSGGGGSGGGGSQVQLVESGGGVVQPGRSLRLSCVASGFTFSNCGMHWVRQAPGKGLEWVAIIWYDGNIKYYGDSVKGRFTISRDNSKNTLYLQMNSLRVEDTAVYYCGRHDYGGNSFDYWGQGTLVTVSS sits?
[reply] class 1

[ask] In the record for Ab.55 scFv-human IgG Fc (Fc fusion, Tested as scFv-human IgG Fc; not shown: human IgG Fc) EVVMTQSPLSLPVTLGQPASVSCRSSQSLLYSDGNTYLIWFQQRPGQSPRRLLYKLSTRDSGVPDRFSGSGSGTDFTLKISRVEAEDVGIYYCMQVTHWPYTFGQGTKLEIKGGGGSGGGGSGGGGSQVQLRESGPGLVKPSETLSLTCTVSGDSLKNSYWGWIRQPPGKGLEWIGYIYYSGTSSYNPSLESRVTFSADTSKNQFSLKLSSVTAADTAVYYCSREGSFDVWGRGTLVTVSS , is EC50 less than 0.07 µg/mL?
[reply] class 0
